// hERG current change (%, negative = inhibition) at 10uM lookup, one value per entry
measured on: human ether-à-go-go-related gene (hERG) potassium channel (human)
Sequence (Q12809 whole entry, looked up): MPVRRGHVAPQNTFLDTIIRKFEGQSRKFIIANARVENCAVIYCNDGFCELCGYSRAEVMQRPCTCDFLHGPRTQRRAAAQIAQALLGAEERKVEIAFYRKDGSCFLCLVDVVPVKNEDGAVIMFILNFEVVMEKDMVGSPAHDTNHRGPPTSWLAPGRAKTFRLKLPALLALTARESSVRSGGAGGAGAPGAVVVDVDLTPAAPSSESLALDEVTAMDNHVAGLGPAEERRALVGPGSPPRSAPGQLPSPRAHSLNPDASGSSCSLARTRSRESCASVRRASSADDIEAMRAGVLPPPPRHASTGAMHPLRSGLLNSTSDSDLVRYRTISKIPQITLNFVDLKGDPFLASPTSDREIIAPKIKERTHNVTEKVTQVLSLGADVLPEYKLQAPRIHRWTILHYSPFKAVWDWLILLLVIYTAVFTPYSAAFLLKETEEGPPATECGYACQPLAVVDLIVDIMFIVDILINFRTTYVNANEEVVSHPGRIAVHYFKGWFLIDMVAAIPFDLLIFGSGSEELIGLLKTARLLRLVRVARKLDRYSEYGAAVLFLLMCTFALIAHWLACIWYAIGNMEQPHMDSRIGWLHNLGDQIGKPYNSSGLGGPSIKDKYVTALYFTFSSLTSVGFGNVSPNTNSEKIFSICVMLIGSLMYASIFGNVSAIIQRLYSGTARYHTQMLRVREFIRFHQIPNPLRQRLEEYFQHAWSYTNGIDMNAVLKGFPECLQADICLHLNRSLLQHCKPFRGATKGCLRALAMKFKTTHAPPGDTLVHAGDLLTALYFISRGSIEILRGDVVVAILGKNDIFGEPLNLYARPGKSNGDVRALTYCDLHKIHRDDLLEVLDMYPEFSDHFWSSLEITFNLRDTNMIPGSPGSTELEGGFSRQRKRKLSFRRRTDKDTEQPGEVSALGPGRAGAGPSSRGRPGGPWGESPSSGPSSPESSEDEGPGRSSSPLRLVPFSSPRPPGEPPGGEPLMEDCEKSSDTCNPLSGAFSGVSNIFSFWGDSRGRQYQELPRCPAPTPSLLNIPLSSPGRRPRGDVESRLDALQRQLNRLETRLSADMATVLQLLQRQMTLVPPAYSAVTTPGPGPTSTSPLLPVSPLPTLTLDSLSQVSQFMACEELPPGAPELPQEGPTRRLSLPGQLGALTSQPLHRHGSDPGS
test details: primary screen, population patch clamp on CHO cells stably expressing hERG; higher = less effect of the substance;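 also: peak tail current of the secondary pulse compared with the same well before compound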
Hit rate of the full screen: of about 310,000 compounds, about 14,000 (4.5%) showed an effect of 50% or more. Effects have a minus sign here. For the sample, strong results were picked, then their nearest neighbours and some compounds at random.
Entry rule: numbers only, all in %.

test smiles | measured on | unit abbreviation | quantitative result
O=[N+]([O-])c1ccc(N2CCN(S(=O)(=O)c3ccccc3)CC2)c2cccnc12 | human ether-à-go-go-related gene (hERG) potassium channel (human) | % | -76.8
Cc1cc(C)cc(NC(=O)CN2CCC(NC(=O)c3cccc(F)c3)CC2)c1 | human ether-à-go-go-related gene (hERG) potassium channel (human) | % | -39
Cc1cccc(NC(=O)CN2CCCCCC2)c1 | human ether-à-go-go-related gene (hERG) potassium channel (human) | % | 7.69
Cc1cccc(NC(=O)CN2CCN(CC(=O)Nc3cccc(C)c3)CC2)c1 | human ether-à-go-go-related gene (hERG) potassium channel (human) | % | -63.7
Cc1ccc(NC(=O)CN2CCC(NC(=O)c3cccc(F)c3)CC2)cc1C | human ether-à-go-go-related gene (hERG) potassium channel (human) | % | -41.3
Cc1cccc(NC(=O)Cn2cccc2)c1 | human ether-à-go-go-related gene (hERG) potassium channel (human) | % | -5.5

Now consider the entry below.
hERG current change (%, negative = inhibition) at 10uM reading for Oc1ccc(N=Nc2cccc(C(F)(F)F)c2)cc1C=Nc1ccc(N2CCOCC2)cc1 : 15.6
